# test.system: HA of ca A/Vietnam/1203/04 (H5N1) virus (influenza A virus)
# run.description: cell-based or functional assay
observed.property: Neutralization IC50, H5-VM04 (µg/mL)
Numeric answer only, unit µg/mL assumed.

binder	Neutralization IC50, H5-VM04 [µg/mL]
Antibody 15 (antibody, V domains shown) VH: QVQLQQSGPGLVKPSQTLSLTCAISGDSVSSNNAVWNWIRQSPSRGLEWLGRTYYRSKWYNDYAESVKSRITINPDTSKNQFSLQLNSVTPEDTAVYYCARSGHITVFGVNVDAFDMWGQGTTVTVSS VL: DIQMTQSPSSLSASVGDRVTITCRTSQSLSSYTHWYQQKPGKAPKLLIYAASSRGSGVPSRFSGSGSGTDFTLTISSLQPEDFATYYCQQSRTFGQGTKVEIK	0.28

Record Antibody 12 (antibody, V domains shown) VH: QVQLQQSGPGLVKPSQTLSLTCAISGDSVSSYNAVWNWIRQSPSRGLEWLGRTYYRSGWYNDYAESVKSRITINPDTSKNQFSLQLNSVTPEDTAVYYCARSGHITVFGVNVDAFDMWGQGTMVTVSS VL: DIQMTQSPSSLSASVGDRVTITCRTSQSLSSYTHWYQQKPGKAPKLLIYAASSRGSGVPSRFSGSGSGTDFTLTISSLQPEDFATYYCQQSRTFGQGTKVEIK . Reported Neutralization IC50, H5-VM04: 0.31

Record Antibody 14 (antibody, V domains shown) VH: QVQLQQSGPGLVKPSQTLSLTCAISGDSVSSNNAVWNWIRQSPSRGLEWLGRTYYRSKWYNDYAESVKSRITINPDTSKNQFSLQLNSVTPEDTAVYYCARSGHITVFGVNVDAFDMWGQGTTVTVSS VL: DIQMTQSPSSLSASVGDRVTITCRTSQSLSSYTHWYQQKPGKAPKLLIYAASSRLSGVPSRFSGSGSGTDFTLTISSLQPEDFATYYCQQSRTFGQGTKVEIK . Reported Neutralization IC50, H5-VM04: 0.33

Record Antibody 11 (antibody, V domains shown) VH: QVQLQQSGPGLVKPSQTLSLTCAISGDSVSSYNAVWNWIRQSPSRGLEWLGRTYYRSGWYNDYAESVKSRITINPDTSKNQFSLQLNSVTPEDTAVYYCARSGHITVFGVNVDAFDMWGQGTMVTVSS VL: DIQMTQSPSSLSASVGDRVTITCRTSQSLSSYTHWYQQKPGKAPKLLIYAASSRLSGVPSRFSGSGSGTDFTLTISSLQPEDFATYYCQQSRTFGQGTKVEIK . Reported Neutralization IC50, H5-VM04: 0.57
